Assayed system: C5, P01031
Assay comment: Kd (SPR)
pKd: −log10 of the molar value.
Recorded measurements of pKd, one per entry
Readout name: pKd

Binder	Measured result
unnamed (protein) chain 1: QVQLVQSGAEVKKPGASVKVSCKASGYIFSNYWIQWVRQAPGQGLEWMGEILPGSGSTEYTENFKDRVTMTRDTSTSTVYMELSSLRSEDTAVYYCARYEYGDTPIIYFDYWGQGTLVTVSS chain 2: DIQMTQSPSSLSASVGDRVTITCGASENIYGALNWYQQKPGKAPKLLIYGATNLADGVPSRFSGSGSGTDFTLTISSLQPEDFATYYCQNVLNTPLTFGQGTKVEIK	6.56
unnamed (protein) chain 1: QVQLVQSGAEVKKPGASVKVSCKASGYTFTSYWIQWVRQAPGQGLEWMGEIQPGSGYTEYTENFKDRVTMTRDTSTSTVYMELSSLRSEDTAVYYCARYRYGDTPIIYFDYWGQGTLVTVSS chain 2: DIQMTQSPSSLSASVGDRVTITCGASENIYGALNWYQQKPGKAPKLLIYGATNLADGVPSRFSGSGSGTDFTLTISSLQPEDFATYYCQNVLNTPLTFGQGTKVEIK	6.21
unnamed (protein) chain 1: QVQLVQSGAEVKKPGASVKVSCKASGYTFTSYWIQWVRQAPGQGLEWMGEIHPGSGYTEYTENFKDRVTMTRDTSTSTVYMELSSLRSEDTAVYYCARYRYGDTPFIYFDYWGQGTLVTVSS chain 2: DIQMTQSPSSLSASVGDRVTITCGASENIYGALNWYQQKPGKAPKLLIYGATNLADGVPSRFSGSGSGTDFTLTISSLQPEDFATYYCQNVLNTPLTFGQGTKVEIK	5.92
unnamed (protein) chain 1: QVQLVQSGAEVKKPGASVKVSCKASGYIFSNYWIQWVRQAPGQGLEWMGEILPGSGSTEYTENFKDRVTMTRDTSTSTVYMELSSLRSEDTAVYYCARYYWGDTPIIYFDYWGQGTLVTVSS chain 2: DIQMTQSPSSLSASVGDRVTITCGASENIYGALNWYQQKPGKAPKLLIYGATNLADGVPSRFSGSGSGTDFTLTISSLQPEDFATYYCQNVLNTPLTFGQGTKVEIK	6.79
unnamed (protein) chain 1: QVQLVQSGAEVKKPGASVKVSCKASGYIFSNYWIQWVRQAPGQGLEWMGEILPGSGSTEYTENFKDRVTMTRDTSTSTVYMELSSLRSEDTAVYYCARLYYGDTPIIYFDYWGQGTLVTVSS chain 2: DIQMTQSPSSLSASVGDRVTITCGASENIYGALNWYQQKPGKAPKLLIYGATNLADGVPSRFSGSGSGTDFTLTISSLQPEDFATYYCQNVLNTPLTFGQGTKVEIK	6.49
